- System: Nucleic Acid
- PROCEDURE_DETAILS: Binding affinity to salmon testes DNA assessed as occurrence of intercalative molecular complex by linear flow dichroism
- Assay type: nucleic-acid assay
- ASSAY_CONDITIONS: Salmonidae
Activity calls are given as the source filed them. The calls are words filed in the database; no cut-off is given here.
Thanks in advance; please answer with one of these: active, inactive

Record lookup: outcome of this test for CC(=O)/C=C/c1ccc(Nc2ccnc3ccc4[nH]ccc4c23)cc1 ?
active

Record lookup: outcome of this test for COc1cc(NS(C)(=O)=O)ccc1Nc1c2ccccc2nc2ccccc12 ?
active

Record lookup: outcome of this test for O=C(/C=C/c1ccc[nH]1)c1ccccc1 ?
inactive

Record lookup: outcome of this test for CC(=O)/C=C/c1ccccc1 ?
inactive

Record lookup: outcome of this test for O=C(/C=C/c1ccc([N+](=O)[O-])cc1)c1ccccc1 ?
inactive

Record lookup: outcome of this test for Cc1c2ccncc2c(C)c2c1[nH]c1ccccc12 ?
active

----------
Kindly supply the reported pIC50 values for the records listed here.
- Tested on: HL-60
- PROCEDURE_DETAILS: Antiproliferative activity against human HL60 cells after 72 hrs by trypan blue assay
- Type: functional, cell-based
- ASSAY_CONDITIONS: HL-60, 72 h
The value called pIC50 is obtained by taking minus log10 of the concentration in mol/L.

# get_value(readout='pIC50', item= O=C(/C=C/c1ccc([N+](=O)[O-])cc1)c1ccc(Nc2ccnc3ccc4[nH]ccc4c23)cc1 )
5.36

# get_value(readout='pIC50', item= O=C(/C=C/c1cccs1)c1ccc(Nc2ccnc3ccc4[nH]ccc4c23)cc1 )
5.49

# get_value(readout='pIC50', item= O=C(/C=C/c1ccc[nH]1)c1ccc(Nc2ccnc3ccc4[nH]ccc4c23)cc1 )
5.25

# get_value(readout='pIC50', item= O=C(/C=C/c1ccc([N+](=O)[O-])cc1)c1ccccc1 )
5.22

# get_value(readout='pIC50', item= CC(=O)/C=C/c1ccc(Nc2ccnc3ccc4[nH]ccc4c23)cc1 )
5.64

// provenance: ChEMBL document CHEMBL1152492
